# Target: T1, Cascade- (crRNA-free Cse1-Cse2-Cas7-Cas5-Cas6e) (Escherichia coli (K12; expressed in …, UniProt Q46901;P76632;Q46899;Q46898;Q46897 1-502;1-160;1-363;1-224;1-199)
# T1 sequence 1: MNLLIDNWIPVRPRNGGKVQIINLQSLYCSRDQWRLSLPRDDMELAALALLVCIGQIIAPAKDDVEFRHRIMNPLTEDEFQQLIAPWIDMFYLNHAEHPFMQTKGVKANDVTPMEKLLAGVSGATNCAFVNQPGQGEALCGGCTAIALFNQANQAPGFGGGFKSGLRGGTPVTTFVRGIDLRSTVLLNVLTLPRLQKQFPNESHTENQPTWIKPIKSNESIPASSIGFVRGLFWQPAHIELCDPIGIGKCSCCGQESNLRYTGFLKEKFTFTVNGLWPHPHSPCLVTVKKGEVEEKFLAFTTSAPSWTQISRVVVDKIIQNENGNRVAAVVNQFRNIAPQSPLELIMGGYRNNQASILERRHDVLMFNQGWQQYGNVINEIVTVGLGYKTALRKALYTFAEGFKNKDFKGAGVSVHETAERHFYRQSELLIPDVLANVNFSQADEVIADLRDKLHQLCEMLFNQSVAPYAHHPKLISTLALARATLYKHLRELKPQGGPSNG
# T1 sequence 2: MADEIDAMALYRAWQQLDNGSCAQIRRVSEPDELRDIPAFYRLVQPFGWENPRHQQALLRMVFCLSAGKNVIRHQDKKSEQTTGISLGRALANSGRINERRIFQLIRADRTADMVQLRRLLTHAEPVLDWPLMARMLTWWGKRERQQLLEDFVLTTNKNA
# T1 sequence 3: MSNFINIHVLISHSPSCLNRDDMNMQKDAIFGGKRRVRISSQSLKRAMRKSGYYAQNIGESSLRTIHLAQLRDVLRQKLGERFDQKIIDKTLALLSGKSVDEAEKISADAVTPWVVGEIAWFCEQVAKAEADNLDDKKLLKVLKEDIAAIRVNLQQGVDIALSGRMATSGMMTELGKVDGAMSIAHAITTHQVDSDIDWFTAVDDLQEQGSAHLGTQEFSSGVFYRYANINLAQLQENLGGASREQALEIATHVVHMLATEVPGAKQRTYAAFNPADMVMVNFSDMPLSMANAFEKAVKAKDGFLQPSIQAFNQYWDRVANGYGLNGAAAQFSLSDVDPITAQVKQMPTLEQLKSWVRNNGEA
# T1 sequence 4: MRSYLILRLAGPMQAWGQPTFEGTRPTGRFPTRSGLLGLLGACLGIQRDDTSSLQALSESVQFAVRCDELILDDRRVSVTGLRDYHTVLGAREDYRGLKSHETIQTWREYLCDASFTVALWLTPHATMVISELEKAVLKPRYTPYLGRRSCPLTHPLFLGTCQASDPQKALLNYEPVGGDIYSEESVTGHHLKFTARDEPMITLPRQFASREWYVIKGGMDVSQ
# T1 sequence 5: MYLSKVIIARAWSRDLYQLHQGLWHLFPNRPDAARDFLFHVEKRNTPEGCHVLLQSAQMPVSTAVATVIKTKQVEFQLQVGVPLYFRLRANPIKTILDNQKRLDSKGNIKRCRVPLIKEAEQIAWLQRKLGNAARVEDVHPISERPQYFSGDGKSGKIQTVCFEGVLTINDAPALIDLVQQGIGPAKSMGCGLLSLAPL
# Experiment: EMSA; EMSA: 20 mM Tris-HCl pH 8, 20 mM NaCl, 10 nM 32P probe, 30 min at 30 or 37 C, 6% native PAGE; loading 10 min at 30 C with crRNA (0.5 uM in Fig 3). Kd values are printed only in Fig 5A (not in the material)
# Reported conditions: protein: recombinant; tags: N-terminal 6His on Cse1 (CasA); copies: 1;2;6;1;1; label: DNA 5'-32P; guide + blunt duplex
Quantity: binding result

Binder	Quantity	Observed result
crRNA7 (-8/+1A) + g8 dsDNA (mixed) RNA: AUAAACCGCUGUCUUUCGCUGCUGAGGGUGACGAUCCGCCA DNA 1: CAGGGAGTTAAAGGCCGCTTTTGCGGGATCGTCACCCTCAGCAGCGAAAGACAGCATCGGAACGAGGGTAGCAACGGCT DNA 2: AGCCGTTGCTACCCTCGTTCCGATGCTGTCTTTCGCTGCTGAGGGTGACGATCCCGCAAAAGCGGCCTTTAACTCCCTG	binding result	binds
crRNA7 (-8/+1U) + g8 dsDNA (mixed) RNA: AUAAACCGCUGUCUUUCGCUGCUGAGGGUGACGAUCCGCCU DNA 1: CAGGGAGTTAAAGGCCGCTTTTGCGGGATCGTCACCCTCAGCAGCGAAAGACAGCATCGGAACGAGGGTAGCAACGGCT DNA 2: AGCCGTTGCTACCCTCGTTCCGATGCTGTCTTTCGCTGCTGAGGGTGACGATCCCGCAAAAGCGGCCTTTAACTCCCTG	binding result	binds

The measured values listed here are drawn from paper PMC4288178.
